Header: IC50 / IRAK4 (Homo sapiens (Human), UniProt Q9NWZ3) / multiple publications

CC(C)Nc1cc(Nc2ccc3ncsc3c2)ncc1-c1nnc[nH]1 = 25.3 nM
Cc1cccc(-n2ncc3ccc(-c4cc(N)cc(CN)n4)cc32)n1 = < 100 nM
CC(C)(O)[C@H](F)CNC(=O)c1cnc(-c2cnn3cc(Cl)cnc23)cc1NCC(F)(F)F = 5 nM
Cc1cc(Nc2nc(N[C@H]3CC[C@H](N4CCCCC4)CC3)c3c(ccn3CCCC#N)n2)sn1 = ≤ 100 nM
Cn1cc(-n2ccc3nc(Nc4csc(C(=O)NCCF)c4)nc(O[C@H]4CCOC4)c32)cn1 = ≤ 100 nM

Query: Form field: IC50 recorded for CC(C)(O)[C@H](F)CNC(=O)c1cnc(Nc2ccn3ncc(F)c3n2)cc1NC1CCC1 with IRAK4 (Homo sapiens (Human), UniProt Q9NWZ3) (enter value)
Reply: 4.2 nM

Query: For the record OCCCc1ccc2ncnc(N[C@H]3CC[C@H](N4CCOCC4)CC3)c2c1 , what value of IC50 is listed for IRAK4 (Homo sapiens (Human), UniProt Q9NWZ3)?
Reply: ≤ 5000 nM

Query: What measured IC50 is associated with CC(C)(O)[C@H](F)CNC(=O)c1cnc2sc(-c3cncs3)cc2c1NC1COC1 on IRAK4 (Homo sapiens (Human), UniProt Q9NWZ3)?
Reply: 15.1 nM

---

Across several studies, molecules have been characterized by their IC50 on IRAK4 (Homo sapiens (Human), UniProt Q9NWZ3); a selection follows.
Answer in nM, number only, no unit symbol.

Use the examples below as a reference point.
CC(C)(O)[C@H](F)CNC(=O)c1cnc(Nc2ccn3ncc(F)c3c2)cc1NC1CC(F)(F)C1 = 3.6
CNc1cc(-c2nc(C(=O)Nc3cn4cc(C(C)(C)O)nc4cc3-c3ccccc3)co2)ccn1 = 0.1
CC(C)Nc1cc(-n2ncc3cc(C#N)cnc32)ncc1-c1cn(CCN2CCOCC2)nn1 = 4
CC(C)Nc1cc(-n2ncc3cc(Cl)cnc32)ncc1-c1cn(C2COC2)nn1 = 27

Now let's try a different one.
Query: Entry CC(C)Nc1cc(Nc2cc3nccnc3cc2F)ncc1C(=O)NC[C@@H](F)C(C)(C)O : reported IC50 = ?
Reply: 4.5

---

Reported pIC50 on UniProtKB Q9NWZ3 for assorted molecules, compiled from publications.
Keep in mind that pIC50 stands for -log10 of concentration in molar terms.

Previously resolved entries follow.
Cn1cc(NC(=O)c2ccc3ccc(N4C[C@@H]5CNC[C@H]4C5)nn23)c(C(F)(F)F)n1 = 7.41
CC(C)Nc1c(C(=O)NC[C@@H](F)C(C)(C)O)cnc2ccc(-c3cncs3)cc12 = 8.09
COc1cc(-c2nc(C(=O)Nc3cn4cc(CCC(C)(C)O)nc4cc3N3CCCCC3)co2)ccn1 = 9.22
CC(F)Cc1cn(-c2cnc(-n3ncc4cc(C#N)cnc43)cc2NC2CC2)nn1 (stereo not drawn) = 7.96
COc1nc2c(OC[C@H]3NC(=O)[C@@H](F)[C@H]3C)csc2cc1C(N)=O = 7.88
CC(C)(O)[C@H](F)CNC(=O)c1cnc(Nc2nc3scnc3cc2F)cc1NC1CCOCC1F (stereo partly drawn) = 8.44
CC(C)Nc1cc(-c2cnn3cc(C#N)cnc23)ncc1C(=O)NCCC(C)(C)C#N = 8.10
CC(C)Nc1c(C(=O)NC2CCCOC2)cnc2ccc(-c3cn[nH]c3)cc12 (stereo not drawn) = 7.62
CC(C)Nc1c(C(=O)NCCN2CCS(=O)(=O)CC2)cnc2ccc(-c3cn[nH]c3)cc12 = 8.02
CC(O)Cc1cn(-c2cnc(-n3ncc4cc(C#N)cnc43)cc2NC2CC2)nn1 (single isomer, unassigned) = 7.64

Query: Quick check: pIC50 on UniProtKB Q9NWZ3, item COc1cc2nn(C3CCN(CCN4CCN(C(=O)c5ccc(OC)c(N6CCC(=O)NC6=O)c5)CC4)CC3)cc2cc1NC(=O)c1cccc(C(F)(F)F)n1 ?
Reply: 8.16

Query: Entry Cc1nc2ccc(Nc3cc(NC4CCCC4F)c(C(=O)NC[C@@H](F)C(C)(C)O)cn3)cc2s1 (stereo partly drawn) , system UniProtKB Q9NWZ3: what pIC50 was measured?
Reply: 8.57

---

The compounds below each have a reported IC50 tested on IRAK4 (Homo sapiens (Human)); the values come from various publications.

Query: Fill in the blank: the reported IC50 of O=C(NCC1CCS(=O)(=O)CC1)c1cnc2ccc(-c3cn[nH]c3)cc2c1NC1CC1 is ____.
Reply: 43.7 nM

Query: # lookup: IC50 of O[C@H]1CC[C@H](Nc2nc(Nc3cnn(-c4ccccn4)c3)nc3ccsc23)CC1
Reply: 100 to 1000 nM

Query: Requested read-out: IC50. Entry: Cn1cc(-c2cccc(-c3ncc(-c4cnn(C)c4)c(NC4C5CCCC4CC(NS(C)(=O)=O)C5)n3)c2)cn1 (stereo not shown)
Reply: < 100 nM

Query: Could you share which IC50 value was measured for NC(=O)c1cc2nc(C3COCCO3)cn2cc1NC(=O)c1cccc(C(F)(F)F)n1 (stereo not shown) ?
Reply: 5 to 10 nM

Query: # input compound: O=C(CCCc1cn(-c2ccccc2)c(NC(=O)c2cccc(-c3cn[nH]c3F)c2)n1)NC1CC1 ; wanted: its IC50
Reply: < 50 nM

Query: For CN(C)[C@H]1CC[C@H](Oc2ncnc3sc4c(c23)C[C@@H](C(N)=O)CC4)CC1 , what is its reported IC50?
Reply: < 5000 nM

Query: Return reported IC50; argument: CC[S@@+]([O-])C[C@H]1CCc2sc3ncnc(O[C@H]4CC[C@H](N(C)C)CC4)c3c21 (single isomer, unassigned)
Reply: < 5000 nM

---

// compounds with reported IC50 on IRAK4 (Homo sapiens (Human), UniProt Q9NWZ3), multi-publication
# number only, unit nM dropped from output

The cases that follow already have their IC50 on record.
CC(C)Nc1c(C(=O)NCCC(F)(F)F)cnc2sc(-c3cccnc3)nc12 = 323
O=C(NCCN1CCC(O)CC1)c1cnc2sc(-c3cccnc3)nc2c1NC1CCOCC1 = 517
COC(=O)N1CCC(n2cc(-c3cnc(-c4cnc5cc(Cl)cnn45)cc3NC3CC3)nn2)[C@](C)(O)C1 (some centres unmarked) = 14

Attention now turns to another entry.
Query: Any idea what IC50 was measured for Cc1cc(Nc2ncc(-c3nc4ccccc4s3)c(N[C@@H]3C[C@H](CF)[C@@H](O)[C@H]3O)n2)cc(C)n1 ?
Reply: 3

---

Reported pIC50 on IRAK4 (Homo sapiens (Human)) for assorted molecules, compiled from publications.
When answering, recall that pIC50 equals minus log10 of the concentration in mol/L, and write that number alone.

The following molecules have reported results that may help.
CC(=O)N1CCN(c2cc3nc(CCC(C)(C)O)cn3cc2NC(=O)c2cccc(C(F)(F)F)n2)CC1 = 8.34
COC(=O)c1cc2nn(C3CCOCC3)cc2cc1NC(=O)c1cccc(C(F)(F)F)n1 = 7.96
Cc1cc(Nc2ncc(-c3nc4cnccc4s3)c(N[C@@H]3C[C@H](CO)[C@@H](O)[C@H]3O)n2)cc(C)n1 = 9.30
CC(C)Nc1cc(-n2ncc3cc(C#N)cnc32)ncc1-c1cn(C[C@H]2CCCN2C(=O)OC(C)(C)C)nn1 = 8.10
CCCc1cn(-c2cnc(-n3ncc4cc(C#N)cnc43)cc2NC(C)C)nn1 = 7.82
CN(C)C(=O)N1CCC(N2CC(n3cc(NC(=O)c4cccc(-c5cn[nH]c5)n4)c(C(F)F)n3)C2)CC1 = 8.49
OC[C@H]1C[C@@H](Nc2nc(Nc3ccc(O)cc3)ncc2-c2nc3ccccc3s2)[C@H](O)[C@@H]1O = 8.24

Now consider a different molecule.
Query: Any idea what pIC50 came out for CC(C)(O)[C@H](F)CNC(=O)c1cnc(Nc2ccn3nccc3n2)cc1NC1CCSCC1 on IRAK4 (Homo sapiens (Human))?
Reply: 8.37

---

Field log10 of IC50: reported value for IRAK4 (Homo sapiens (Human)); entries drawn from several documents.
A value of 2 here means IC50 of 100 in nM, since values are log10.

Would you please look over these solved cases?
CC(=O)NCCCNC(=O)c1cnc(Nc2ccc3ncsc3c2)cc1NC(C)C = 0.92
CC(C)(O)[C@H]1C[C@H](n2cc3cc(NC(=O)c4cccc(C(F)(F)F)n4)c(-c4ccccn4)cc3n2)C1 = 0.81
COC(=O)N1CC(n2cc(-c3cnc(-n4ncc5cc(C#N)cnc54)cc3NC(C)C)nn2)C1 = 0.70
N#Cc1ccccc1NC(=O)c1ccc2ccc(N3CCCNCC3)nn12 = 2.94
C[C@H](CO)Nc1c(C(=O)NCCCN2CCOCC2)cnc2sc(-c3ccccc3)nc12 = 2.68

Query: Give the reported log10 of IC50 for Cc1nc(Nc2ccc(O)cc2)nc(N[C@@H]2C[C@H](CO)[C@@H](O)[C@H]2O)c1-c1nc2ccccc2s1 (system: IRAK4 (Homo sapiens (Human))).
Reply: 2.39

Query: Query for IRAK4 (Homo sapiens (Human)): what log10 of IC50 does the record show for CC(C)Nc1c(C(=O)NC[C@@H](F)C(C)(C)O)cnc2sc(-c3ccccc3)nc12 ?
Reply: 1.19

Query: Missing value: log10 of IC50, IRAK4 (Homo sapiens (Human)), entry CC(C)(O)[C@H](F)CNC(=O)c1cnc(-c2cnc3cc(C#N)cnn23)cc1Nc1cnn(C2CC2)c1 . Fill in?
Reply: 0.30

Query: Recall the recorded log10 of IC50 for CC(=O)N1CC[C@H](n2cc(-c3cnc(-n4ncc5cc(C#N)cnc54)cc3NC(C)C)nn2)[C@H](O)C1 with IRAK4 (Homo sapiens (Human)) and state it.
Reply: 0.78

Query: Hello, I am looking for reported log10 of IC50 with IRAK4 (Homo sapiens (Human)) for CC(C)Nc1cc(Nc2cc3ccnn3cc2F)ncc1C(=O)NC[C@@H](F)C(C)(C)O . Could you help?
Reply: 1.00

Query: Record lookup: for IRAK4 (Homo sapiens (Human)), what log10 of IC50 belongs to CC(=O)N1CCC(n2cc(-c3cnc4ccc(-c5cn[nH]c5)cc4c3NC(C)C)nn2)CC1 ?
Reply: 0.49

Query: GET /values?readout=log10 of IC50&system=IRAK4 (Homo sapiens (Human))&item= CC(=O)N1CCC(N2CC(n3cc(NC(=O)c4cccc(-c5cnn(C6(C#N)CCC6)c5)n4)c(C(F)F)n3)C2)CC1
Reply: 0.30

Query: Find the measured log10 of IC50: item CC(C)(O)[C@H](F)CNC(=O)c1cnc2sc(-c3ccccc3)nc2c1NC1CC1 , target or system IRAK4 (Homo sapiens (Human)).
Reply: 1.60
